Each recorded value in this set is attributed to PubChem BioAssay (Tox21).

# test.target: Beta-2 adrenergic receptor (Homo sapiens) (UniProt P07550)
# Sequence (P07550 whole entry, looked up): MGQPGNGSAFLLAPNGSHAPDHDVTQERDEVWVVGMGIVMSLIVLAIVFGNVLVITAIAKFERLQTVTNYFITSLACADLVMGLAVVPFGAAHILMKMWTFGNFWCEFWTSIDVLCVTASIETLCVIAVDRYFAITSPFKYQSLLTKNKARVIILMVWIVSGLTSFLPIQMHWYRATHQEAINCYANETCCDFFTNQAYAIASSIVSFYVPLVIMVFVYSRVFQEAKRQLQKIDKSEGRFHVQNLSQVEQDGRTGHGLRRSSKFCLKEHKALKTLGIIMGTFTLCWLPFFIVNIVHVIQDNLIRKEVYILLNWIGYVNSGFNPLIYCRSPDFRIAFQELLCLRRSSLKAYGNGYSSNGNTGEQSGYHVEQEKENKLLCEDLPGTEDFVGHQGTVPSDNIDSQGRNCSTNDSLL
# measurement.notes: Adrenergic beta2 receptor (ADRB2) small molecule antagonists, cell-based qHTS assay (AID 1963592); also: nearly all actives have a fitted effect of over 50% in size
# measurement.parameters: CHO-ADRB2 cells, isoproterenol-stimulated cAMP HTRF ratio, 0.5 h; series mostly up to 92.4 µM
# Excerpt: U.S. Tox21 Program National Center for Advancing Translational Sciences [NCATS] Division of Preclinical Innovation [DPI] U.S. Environmental Protection Agency [EPA] National Institutes of Environmental Health Sciences [NIEHS] National Toxicology Program [NTP] U.S. Food and Drug Administration [FDA] […] The principle of cAMP-Gs dynamic assay is based on HTRF technology, which facilitates the fluorescence resonance energy transfer (FRET) between donor Europium cryptate and acceptor d2-labeled cAMP. […]
Records with an inconclusive call do not appear. Activity calls are given as the source filed them. Calls follow the shape of the full dose curve.
endpoint.label: outcome

// worked examples, outcome included
molecule	outcome
CCCBr	inactive
Brc1ccc(Oc2ccccc2)cc1	inactive
CNC(=O)O/N=C/C(C)(C)S(C)(=O)=O	inactive
Cl/C=C\C[N+]12CN3CN(CN(C3)C1)C2	inactive
Cc1ccc(N)cc1	inactive

Briefly, outcome measured for Cc1cc(Cl)ccc1O : inactive

Briefly, outcome measured for O=P(Cl)(Cl)Cl : inactive

Briefly, outcome measured for N#Cc1ccc(O)cc1 : inactive

Briefly, outcome measured for C=CC(=O)OCCO : inactive

Briefly, outcome measured for [N-]=[N+]=CC(=O)OC[C@H](N)C(=O)O : inactive

Briefly, outcome measured for C[C@]12CC[C@H]3[C@@H](CC[C@@]45O[C@@H]4C(O)=C(C#N)C[C@]35C)[C@@H]1CC[C@@H]2O : inactive

----------
# test.target: Beta-2 adrenergic receptor (Homo sapiens)
# measurement.notes: Adrenergic beta2 receptor (ADRB2) small molecule antagonists, cell-based qHTS assay (AID 1963592); also: nearly all actives have a fitted effect of over 50% in size
# measurement.parameters: CHO-ADRB2 cells, isoproterenol-stimulated cAMP HTRF ratio, 0.5 h; series mostly up to 92.4 µM
Records with an inconclusive call do not appear. Active and inactive are the calls of the source. The call rests on the fitted dose curve.
endpoint.label: outcome

// worked examples, outcome included
molecule	endpoint.result
Cc1ccc(N=CN(C)C=Nc2ccc(C)cc2C)c(C)c1	inactive
N#Cc1ccccc1Cl	inactive
Cc1ncc2n1-c1ccc(Cl)cc1C(c1ccccc1F)=NC2	inactive
OC[P+](CO)(CO)CO	inactive

outcome on Beta-2 adrenergic receptor (Homo sapiens) for C[C@]12C=CC3=C4CCC(=O)C=C4CC[C@H]3[C@@H]1CC[C@@H]2O is inactive

outcome on Beta-2 adrenergic receptor (Homo sapiens) for CCBr is inactive

outcome on Beta-2 adrenergic receptor (Homo sapiens) for CN(C)c1nc(=O)n(C2CCCCC2)c(=O)n1C is inactive

outcome on Beta-2 adrenergic receptor (Homo sapiens) for CC(C)(O)C#N is inactive

outcome on Beta-2 adrenergic receptor (Homo sapiens) for O=C1C2(Cl)C3(Cl)C4(Cl)C(Cl)(Cl)C5(Cl)C3(Cl)C1(Cl)C5(Cl)C24Cl (stereo not given) is inactive

outcome on Beta-2 adrenergic receptor (Homo sapiens) for O=C(O)CC[N+](=O)[O-] is inactive

outcome on Beta-2 adrenergic receptor (Homo sapiens) for OCC(Cl)CCl (stereo not given) is inactive

outcome on Beta-2 adrenergic receptor (Homo sapiens) for O=C(O)C1C2CCC(O2)C1C(=O)O (stereo not given) is inactive

outcome on Beta-2 adrenergic receptor (Homo sapiens) for CC[N+](CC)(CC)CC is inactive

outcome on Beta-2 adrenergic receptor (Homo sapiens) for CCCCOC(=O)c1ccccc1C(=O)OCCCC is inactive

outcome on Beta-2 adrenergic receptor (Homo sapiens) for CN(C)C(=S)S is inactive

outcome on Beta-2 adrenergic receptor (Homo sapiens) for CC(C)(N)Cc1ccccc1Cl is inactive

outcome on Beta-2 adrenergic receptor (Homo sapiens) for Fc1cc(Br)ccc1CBr is inactive
